run_description: Binding analysis via QCM
reported_conditions: binding to HAp, read-out: KD (dissociation constant)
Each entry below carries its recorded log10 Kd.
endpoint_label: log10 Kd (log10 of the value in nM)

| sequence | endpoint_label | quantitative_readout |
| --- | --- | --- |
| VPGHHSMTPTQH [ADP2] | log10 Kd | 3.21 |
| PAQQPVAPQQPMMP [ADP8] | log10 Kd | 3.50 |
| HPPSHTLQPHHHLPVVPAQQPVAPQQPMMPVPGHHSMTPTQH [ADP7] | log10 Kd | 3.06 |
| LPPLFSMPLSPILPELPLEAWPAT [ADP6] | log10 Kd | 3.80 |
| HPPSHTLQPHHHLPVV [ADP4] | log10 Kd | 3.16 |
| PGYINLSYEKSHSQAINTDRTA [ADP5] | log10 Kd | 4.70 |
| HTLQPHHHLPVV [ADP1] | log10 Kd | 3.15 |
| WPATDKTKREEVD [ADP3] | log10 Kd | 3.81 |
